Target: RTA depurination activity on yeast ribosomes (Ricinus communis, UniProt P02879)
Residues, ends and D or L forms follow the SMILES beside them.
quantity name: IC50 (µM)
Report only the number, with the unit µM understood.

Param readout = IC50; param system = RTA depurination activity on yeast ribosomes (Ricinus communis, UniProt P02879); param query = CC(C)C[C@H](NC(=O)CN)C(=O)N[C@@H](Cc1ccccc1)C(=O)N[C@@H](CC(=O)O)C(=O)O [P4, G112LFD115] (H-GLFD-OH) ; response: value
102

###

Quick reference: pIC50 of the listed items.
Biological target: RTA depurination activity on rat liver ribosomes (Ricinus communis, UniProt P02879)
Assay: biochemical
Format: biochemical
No end group written: not given here.
Just so you know, pIC50 here is -log10 of the concentration in molar units; reply with that number alone.

DDDMGFGLFD [P10] ... 4.08
DMGFGLFD [P8, D108MGFGLFD115] ... 3.57
SDDDMGFGLFD [P11] ... 4.51

Next:
Give its pIC50 value. Item: DDMGFGLFD [P9]
3.85
